Assay: Cmax in Sprague-Dawley rat at 2 mg/kg, iv
Format: ADME, organism-based
Parameters: dose 2 mg/kg, route intravenous
Conditions: in vivo
measured-property: Cmax (ng/mL)
Give just the number in ng/mL; leave the unit off.

Please give the measured Cmax for this compound: CCc1cc2c(s1)CCN1Cc3c(OC)ccc(OC)c3CC21 (stereo unspecified)
114

====

Test system: Rattus norvegicus
Test: Clearance in Sprague-Dawley rat at 2 mg/kg, iv
Format: ADME, organism-based
Details: in vivo
measured-property: clearance (L/h/kg)
Give just the number in L/h/kg; leave the unit off.

Please give the measured clearance for this compound: CCc1cc2c(s1)CCN1Cc3c(OC)ccc(OC)c3CC21 (stereo unspecified)
4.6

Origin of the recorded values: ChEMBL document CHEMBL4130473
